Molecular target: NR2E3 (Homo sapiens)
Construct: aa 90–410 (expressed as His8-MBP-TEV fusion, tag removed)
Sequence (Q9Y5X4 90-410): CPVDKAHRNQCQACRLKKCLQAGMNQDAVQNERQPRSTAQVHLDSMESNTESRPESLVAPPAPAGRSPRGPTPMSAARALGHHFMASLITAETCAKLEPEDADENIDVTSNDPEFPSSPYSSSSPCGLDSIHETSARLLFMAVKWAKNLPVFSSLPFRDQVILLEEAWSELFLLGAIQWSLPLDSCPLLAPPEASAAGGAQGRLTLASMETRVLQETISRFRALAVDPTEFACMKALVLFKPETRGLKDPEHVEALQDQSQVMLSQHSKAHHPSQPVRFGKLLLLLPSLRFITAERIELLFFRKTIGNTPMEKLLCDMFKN
Assay: isothermal titration calorimetry ([…] PR3 injected into […] NR2E3; one site model, qualitative)
pKd: −log10 of the molar value.
experimental.endpoint: pKd

COc1cc2nc(CN3CC=C(c4ccccc4)CC3)nc(O)c2cc1OC [PR3, Photoregulin3]
~4.17
